This collection of values is drawn from patent US20210087522.

# Test Target: T1, FNsACP, homolog of ArCPNp from Fischerella
# T1 chain: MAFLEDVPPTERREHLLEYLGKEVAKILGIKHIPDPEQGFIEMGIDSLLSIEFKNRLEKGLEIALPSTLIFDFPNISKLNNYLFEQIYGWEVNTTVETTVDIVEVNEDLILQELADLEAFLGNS
Assay Metric: kcat/Km (M⁻¹ s⁻¹)
One number for each entry, in M⁻¹ s⁻¹.

-- ask What does the record list as kcat/Km for Sfp, phosphopantetheinyl transferase from Bacillus subtilis (protein) MKIYGIYMDRPLSQEENERFMTFISPEKREKCRRFYHKEDAHRTLLGDVLVRSVISRQYQLDKSDIRFSTQEYGKPCIPDLPDAHFNISHSGRWVIGAFDSQPIGIDIEKTKPISLEIAKRFFSKTEYSDLLAKDKDEQTDYFYHLWSMKESFIKQEGKGLSLPLDSFSVRLHQDGQVSIELPDSHSPCYIKTYEVDPGYKMAVCAAHPDFPEDITMVSYEELL ?
-- reply 3330
